Each recorded value in this set is attributed to patent US6977254B2.

- targetOrSystem: human vasopressin V1a receptor subtype (Homo sapiens, UniProt P37288)
- Construct: host or cells: CHO cells, stably transfected (pZeoSV vector for the Thibonnier line); membranes
- Sequence (P37288 whole entry): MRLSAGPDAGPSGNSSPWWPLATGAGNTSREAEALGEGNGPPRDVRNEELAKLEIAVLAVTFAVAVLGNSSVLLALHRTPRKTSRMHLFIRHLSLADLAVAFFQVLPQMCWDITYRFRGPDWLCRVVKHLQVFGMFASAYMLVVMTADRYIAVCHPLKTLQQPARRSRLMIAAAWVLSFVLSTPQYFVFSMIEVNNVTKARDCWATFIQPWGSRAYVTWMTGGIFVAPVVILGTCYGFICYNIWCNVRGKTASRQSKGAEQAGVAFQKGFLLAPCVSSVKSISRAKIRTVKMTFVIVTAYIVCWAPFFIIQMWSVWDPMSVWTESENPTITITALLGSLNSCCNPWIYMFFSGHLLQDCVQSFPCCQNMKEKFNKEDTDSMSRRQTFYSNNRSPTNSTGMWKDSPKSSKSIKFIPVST
- assayExplanation: Vasopressin binding in CHO cell membranes expressing human vasopressin V1a subtype receptors ([3H]Manning ligand)
- measurementContext: 100 nM, value without parentheses
Reported V1a % inhibition @ 100 nM by item:
Quick note: give the figure in %, leave out the unit.

Answered cases to consult:
| lineNotation | unitsSymbol | V1a % inhibition @ 100 nM |
| --- | --- | --- |
| Cc1cc(C(=O)N2Cc3ccc(C(=O)N[C@@H](Cc4ccc(O)cc4)C(=O)O)n3Cc3ccccc32)ccc1C1=CCCCC1 | % | 14 |
| Cc1cc(C(=O)N2Cc3ccc(C(=O)N(CCO)CCO)n3Cc3ccccc32)ccc1C1=CCCc2ccccc21 | % | 6 |
| Cc1cc(C(=O)N2Cc3ccc(C(=O)N4CCN(CCO)CC4)n3Cc3ccccc32)ccc1C1=CCCCC1 | % | 31 |

Request: Give its V1a % inhibition @ 100 nM value. Item: Cc1cc(C(=O)N2Cc3ccc(C(=O)C(Cl)(Cl)Cl)n3Cc3ccccc32)ccc1C1=CCCCC1
Result: 0
